Just for reference, ChEMBL document CHEMBL4368914 is where these values come from.

testTarget: Estrogen receptor (Homo sapiens, UniProt P03372)
Sequence (P03372 whole entry): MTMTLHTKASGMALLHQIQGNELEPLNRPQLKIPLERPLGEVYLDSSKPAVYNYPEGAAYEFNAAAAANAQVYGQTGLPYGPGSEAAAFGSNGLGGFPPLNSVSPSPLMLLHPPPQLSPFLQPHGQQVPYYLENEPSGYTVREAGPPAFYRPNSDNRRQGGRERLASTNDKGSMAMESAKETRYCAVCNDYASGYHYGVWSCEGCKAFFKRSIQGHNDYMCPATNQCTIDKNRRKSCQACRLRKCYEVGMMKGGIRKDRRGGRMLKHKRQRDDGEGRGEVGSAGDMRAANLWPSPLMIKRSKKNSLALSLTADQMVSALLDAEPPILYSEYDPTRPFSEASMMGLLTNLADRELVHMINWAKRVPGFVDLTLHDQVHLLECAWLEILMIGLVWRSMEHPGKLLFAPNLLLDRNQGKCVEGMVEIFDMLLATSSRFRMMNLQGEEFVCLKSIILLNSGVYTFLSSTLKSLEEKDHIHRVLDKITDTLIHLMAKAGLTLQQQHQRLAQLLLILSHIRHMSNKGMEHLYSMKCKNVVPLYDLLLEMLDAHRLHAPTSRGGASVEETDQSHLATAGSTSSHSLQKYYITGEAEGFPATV
measurementNotes: Induction of ERalpha degradation in human MCF7 cells assessed as reduction in ERalpha protein expression after 5 hrs in presence of […] tamoxifen by formaldehyde-staining based assay
Format: cell-based
valueKind: pIC50
Units for pIC50: none; it is -log10 of a concentration expressed in mol/L.

Measured pIC50 (Estrogen receptor (Homo sapiens, UniProt P03372)), entry "C[C@@H]1Cc2c(ccc3[nH]ncc23)[C@@H](c2c(F)cc(/C=C/C(=O)O)cc2F)N1CC(C)(C)F" : 8.10

* * *

measurementNotes: Fraction unbound in mouse plasma by equilibrium dialysis
Type: ADME, cell-free
valueKind: fraction unbound

C[C@@H]1Cc2c(ccc3[nH]ncc23)[C@@H](c2c(F)cc(/C=C/C(=O)O)cc2F)N1CC(C)(C)F; 0.0095

I: COc1cc(/C=C/C(=O)O)ccc1[C@@H]1c2ccc3[nH]ncc3c2C[C@@H](C)N1CC(C)(F)F
II: C[C@@H]1Cc2c(ccc3[nH]ncc23)[C@@H](c2c(F)cc(/C=C/C(=O)O)cc2F)N1CC(C)(F)F
Please tell me which of the two, I or II , has the higher reported fraction unbound value. Indicate your choice by writing its label.
II
(II: 0.021, I: 0.012)

* * *

measurementNotes: Efflux ratio of apparent permeability in human Caco2 cells at 10 uM
Format: ADME, cell-based
assayConditions: Caco-2
valueKind: efflux ratio at 10 µM

C[C@@H]1Cc2c(ccc3[nH]ncc23)[C@@H](c2c(F)cc(/C=C/C(=O)O)cc2F)N1CC(C)(F)F; 2.6

a: C[C@@H]1Cc2c(ccc3[nH]ncc23)[C@@H](c2c(F)cc(/C=C/C(=O)O)cc2F)N1CC(C)(C)F
b: COc1cc(/C=C/C(=O)O)ccc1[C@@H]1c2ccc3[nH]ncc3c2C[C@@H](C)N1CC(C)(F)F
Please tell me which of the two, a or b , has the higher reported efflux ratio at 10 µM value. Indicate your choice by writing its label.
b
(b: 2.2, a: 1.4)

* * *

measurementNotes: Fraction unbound in 10% human plasma by equilibrium dialysis
Format: ADME, cell-free
assayConditions: 10% plasma
valueKind: fraction unbound

Here's what some known entries look like.
CC(C)CN1[C@H](c2c(F)cc(/C=C/C(=O)O)cc2F)c2ccc3[nH]ncc3c2C[C@H]1C; 0.0048
COc1c([C@@H]2c3ccc4[nH]ncc4c3C[C@@H](C)N2CC(C)(F)F)ccc(/C=C/C(=O)O)c1F; 0.0082
CC(C)CN1[C@H](c2ccc(/C=C/C(=O)O)cc2)c2ccc3[nH]ncc3c2C[C@H]1C; 0.022
C[C@@H]1Cc2c(ccc3[nH]ncc23)[C@@](C)(c2c(F)cc(/C=C/C(=O)O)cc2F)N1CC(C)(C)F; 0.0033

A: C[C@@H]1Cc2c(ccc3[nH]ncc23)[C@@H](c2c(F)cc(/C=C/C(=O)O)cc2F)N1CC(C)(F)F
B: COc1cc(/C=C/C(=O)O)cc(F)c1[C@@H]1c2ccc3[nH]ncc3c2C[C@@H](C)N1CC(C)(F)F
Please tell me which of the two, A or B , has the higher reported fraction unbound value. Indicate your choice by writing its label.
A
(A: 0.011, B: 0.007)

* * *

Protein target, amino acids: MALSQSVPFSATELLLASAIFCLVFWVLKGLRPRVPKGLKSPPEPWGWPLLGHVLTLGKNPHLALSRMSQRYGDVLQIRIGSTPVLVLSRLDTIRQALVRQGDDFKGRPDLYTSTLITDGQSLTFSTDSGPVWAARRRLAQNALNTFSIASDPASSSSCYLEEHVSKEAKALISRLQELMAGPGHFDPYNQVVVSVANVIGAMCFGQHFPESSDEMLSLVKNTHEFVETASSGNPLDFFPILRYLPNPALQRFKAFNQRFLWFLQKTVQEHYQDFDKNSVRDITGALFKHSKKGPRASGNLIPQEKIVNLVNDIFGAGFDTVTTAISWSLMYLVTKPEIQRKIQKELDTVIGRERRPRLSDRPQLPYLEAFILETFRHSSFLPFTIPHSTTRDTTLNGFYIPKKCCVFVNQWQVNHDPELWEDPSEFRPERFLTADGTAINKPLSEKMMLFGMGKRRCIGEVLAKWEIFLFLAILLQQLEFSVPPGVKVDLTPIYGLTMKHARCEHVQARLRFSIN
valueKind: IC50

C[C@@H]1Cc2c(ccc3[nH]ncc23)[C@@H](c2c(F)cc(/C=C/C(=O)O)cc2F)N1CC(C)(C)F; > 30 µM

// next entry
Item: "COc1cc(/C=C/C(=O)O)ccc1[C@@H]1c2ccc3[nH]ncc3c2C[C@@H](C)N1CC(C)(F)F" | IC50: > 30 µM
